Value source: PubChem BioAssay (NCI)

System: MDA-MB-468 breast
TEST DETAILS: NCI tumour cell line growth inhibition, 48 h; in the data active means GI50 below about 0.43 µM; inactive means the rest
Outcomes you can answer with include only these: true (1) = active, false (0) = inactive

COMPOUND | GROUP LABEL
O=C1c2cccnc2C(=O)c2c1c(C(=O)NCCCN1CCCCC1)c1ccccn21 | false (0)
C[C@@H]1CN(Cc2ccc(F)cc2)[C@@H](C)CN1C(=O)c1cc2c(C(=O)C(=O)N(C)C)cn(C)c2cc1Cl | false (0)
COc1ccc2cc1Oc1ccc(cc1)C[C@H]1c3c(cc4c(c3Oc3cc5c(cc3OC)CCN(C)[C@@H]5C2)OCO4)CCN1C | false (0)
CC(C)C[C@H](NC(=O)CNC(=O)c1cc(Cl)ccc1Cl)B1OC(=O)CC(CC(=O)O)(C(=O)O)O1 (some centres undefined) | true (1)
CC(C)=CCc1c(O)c(CC=C(C)C)c2c(c1O)C(=O)C1=C[C@@H]3C[C@H]4C(C)(C)O[C@@](C/C=C(\C)C(=O)O)(C3=O)[C@@]14O2 | false (0)

In: Write down the call the test reported for this compound. Item: CC(=O)Nc1ccc(-n2cnc3cc(-c4ccc(O)cc4)ccc32)cc1F
Out: false (0)

---

Test system: NCI/ADR-RES ovarian
TEST DETAILS: NCI tumour cell line growth inhibition, 48 h
Entries annotated with measured GI50

Here are 3 compounds together with their reported answers.
CHEM SMILES | GI50
CC(=O)Nc1ccc(-n2cnc3cc(-c4ccc(O)cc4)ccc32)cc1F | 2780 nM
CN1CCN(c2ccc3c(c2)nc(NNC(=O)c2cnccn2)c2cccn23)CC1 | 829 nM
COc1ccc(C(=O)/C=C/c2cc3c(cc2Br)OCO3)cc1S(N)(=O)=O | 2300 nM

Next, consider the following compound.
So for c1n[nH]cc1-c1nc2ccc3[nH]ncc3c2c2c1CC1(CC2)COC1 , the logged GI50 turned out to be > 100000 nM

---

Test system: SNB-19 CNS
TEST DETAILS: NCI tumour cell line growth inhibition, 48 h
PROPERTY LABEL: TGI (µM)
Unit µM implied. Number only.

Here are 2 molecules together with their reported answers.
CHEM SMILES | TESTED ON | UNIT | TGI
COc1ccc(C(=O)/C=C/c2cc3c(cc2Br)OCO3)cc1S(N)(=O)=O | SNB-19 CNS | µM | 29.7
O=C(CSc1nnc(-c2ccc3nc(-c4ccc(Cl)cc4)[nH]c3c2)o1)Nc1ccc(Cl)cc1 | SNB-19 CNS | µM | 4.52

So for c1n[nH]cc1-c1nc2ccc3[nH]ncc3c2c2c1CC1(CC2)COC1 , the logged TGI turned out to be 68.1

---

Test system: PC-3 prostate
TEST DETAILS: NCI tumour cell line growth inhibition, 48 h; in the data active = GI50 below about 0.43 µM; inactive = the rest
Outcomes you can answer with include only these: active, inactive

In: Write down the call the test reported for this molecule. Item: CC(C)N=C([Se])NC(=O)c1cccs1
Out: inactive

In: Write down the call the test reported for this molecule. Item: CN1CCN(c2ccc3c(c2)nc(NNC(=O)c2cnccn2)c2cccn23)CC1
Out: active

In: Write down the call the test reported for this molecule. Item: O=C(CSc1nnc(-c2ccc3nc(-c4ccc(Cl)cc4)[nH]c3c2)o1)Nc1ccc(Cl)cc1
Out: inactive

In: Write down the call the test reported for this molecule. Item: CC(=O)Nc1ccc(-n2cnc3cc(-c4ccc(O)cc4)ccc32)cc1F
Out: inactive

---

Tested on: HOP-62 NSCLC
TEST DETAILS: NCI tumour cell line growth inhibition, 48 h
Entries annotated with measured TGI
Unit µM implied. Number only.

Here are 2 compounds together with their reported answers.
CHEM SMILES | TESTED ON | PROPERTY LABEL | UNIT | ENDPOINT RESULT
CN1CCN(c2ccc3c(c2)nc(NNC(=O)c2cnccn2)c2cccn23)CC1 | HOP-62 NSCLC | TGI | µM | 11.3
O=C(CSc1nnc(-c2ccc3nc(-c4ccc(Cl)cc4)[nH]c3c2)o1)Nc1ccc(Cl)cc1 | HOP-62 NSCLC | TGI | µM | 5.46

Next, consider the following compound.
So for c1n[nH]cc1-c1nc2ccc3[nH]ncc3c2c2c1CC1(CC2)COC1 , the logged TGI turned out to be 47.3

---

System: MDA-MB-468 breast
TEST DETAILS: NCI tumour cell line growth inhibition, 48 h
Using TGI as the sorting value, the categories are 1: < 0.4 µM; 2: ≥ 0.4 µM and < 50 µM; 3: ≥ 50 µM

COMPOUND | GROUP LABEL
O=C1c2cccnc2C(=O)c2c1c(C(=O)NCCCN1CCCCC1)c1ccccn21 | 2
c1n[nH]cc1-c1nc2ccc3[nH]ncc3c2c2c1CC1(CC2)COC1 | 2
N#Cc1c(N2CCOCC2)nc(=S)[nH]c1-c1ccco1 | 3
CC1=C2[C@@H](CC1)[C@]1(C)O[C@@](c3ccccc3)(C[C@H]1OC(=O)CO)[C@H]2OC(=O)/C=C/c1ccccc1 | 2
O=C(/C=C\c1cccc([N+](=O)[O-])c1)/C=C/c1cccc([N+](=O)[O-])c1 | 3

In: Please classify: Cc1ccc(/C=N\NC(=O)c2[nH]c3ccc(F)cc3c2-c2ccccc2)cc1
Out: 1

In: Please classify: OCc1ccc(N2CCCC2c2ccccc2)cc1Cl (stereo not given)
Out: 2

In: Please classify: CN(C)CCCn1c(=O)c2ccccc2c2ccccc21
Out: 2

In: Please classify: CC(C)C[C@H](NC(=O)CNC(=O)c1cc(Cl)ccc1Cl)B1OC(=O)CC(CC(=O)O)(C(=O)O)O1 (stereo not given in full)
Out: 1

---

Test system: K-562 leukemia
TEST DETAILS: NCI tumour cell line growth inhibition, 48 h
PROPERTY LABEL: GI50

Here are 2 compounds together with their reported answers.
CHEM SMILES | GI50
CN1CCN(c2ccc3c(c2)nc(NNC(=O)c2cnccn2)c2cccn23)CC1 | 631 nM
CC(C)N=C([Se])NC(=O)c1cccs1 | 28400 nM

So for CC(=O)Nc1ccc(-n2cnc3cc(-c4ccc(O)cc4)ccc32)cc1F , the logged GI50 turned out to be 496 nM

So for O=C(CSc1nnc(-c2ccc3nc(-c4ccc(Cl)cc4)[nH]c3c2)o1)Nc1ccc(Cl)cc1 , the logged GI50 turned out to be 2890 nM

---

Entries annotated with measured GI50
Test system: MDA-MB-468 breast
TEST DETAILS: NCI tumour cell line growth inhibition, 48 h

CHEM SMILES | GI50
CN1CCN(Cc2ccc(NC(=O)c3cncc(C#Cc4cnc(N)nc4)c3)cc2C(F)(F)F)CC1 | 0.684 µM

So for O=C1/C(=C/c2ccccc2[N+](=O)[O-])Cc2ccccc21 , the logged GI50 turned out to be 1.38 µM

So for CC1=C2[C@@H](CC1)[C@]1(C)O[C@@](c3ccccc3)(C[C@H]1OC(=O)CO)[C@H]2OC(=O)/C=C/c1ccccc1 , the logged GI50 turned out to be 17.9 µM
